System: HEK293 cells
EXPERIMENT_NOTES: Preliminary screening as mRNA vectors, EGFP mRNA transfection of HEK293 cells
Type: cell-based
CONDITION_SET: HEK293 cells, 96-well plates, EGFP mRNA 50 ng per well; percentage of GFP fluorescent cells relative to total number of cells (Hoechst)
METRIC: Absolute mRNA transfection efficiency in HEK293 cells (%)
Field format: number, assumed %, no unit text.

Guide cases for Absolute mRNA transfection efficiency in HEK293 cells, answers given:
INSERT INTO results (mol_smiles, numeric_value) VALUES
  ('CCCCCCCCCCCCCCCCCCSc1nc(NCCN2CCOCC2)nc(SCCCCCCCCCCCCCCCC)n1', 0.0),
  ('CCCCCCCCCCCCCCCNc1nc(NCCN(CC)CC)nc(N(CCCCCCCCCCCC)CCCCCCCCCCCC)n1', 0.0);

INPUT: Find the recorded Absolute mRNA transfection efficiency in HEK293 cells belonging to CCCCCCCCCCCCCCCSc1nc(NCCN2CCOCC2)nc(SCCCCCCCCCCCCCCC)n1 and report it.
OUTPUT: 0.0

INPUT: I am curious: what Absolute mRNA transfection efficiency in HEK293 cells value has been reported for CCCCCCCCCNc1nc(NCCCCCCC)nc(NCCN2CCCCC2)n1 ?
OUTPUT: 0.0

###

System: HEK293 cells
EXPERIMENT_NOTES: Preliminary screening as mRNA vectors, EGFP mRNA transfection of HEK293 cells
Type: cell-based
CONDITION_SET: EGFP mRNA 50 ng per well, 96-well plates; percentage of GFP fluorescent cells relative to total number of cells (Hoechst)
Think of 3% as a floor: if Absolute mRNA transfection efficiency in HEK293 cells stands on it or above, it is criterion met; beneath it, criterion not met.

The examples below pair each entry with its known result.
INSERT INTO measurements (compound, target_entity, class_assignment) VALUES
  ('CCCCCCCCCCCCCCCCNc1nc(NCCN2CCN(C)CC2)nc(SCCCCCCCCCCCCCCC)n1 [Compound D5S15N16]', 'HEK293 cells', 'criterion not met'),
  ('CCCCCCCCCCCCCNc1nc(NCCN2CCCC2)nc(SCCCCCCCCCCC)n1 [Compound D3S11N13]', 'HEK293 cells', 'criterion met'),
  ('CCCCCCCCCCCCSc1nc(NCCCCCC)nc(NCCCN2CCOCC2)n1 [Compound D8S12N6]', 'HEK293 cells', 'criterion not met'),
  ('CCCCCCCCCCCCCNc1nc(NCCN(C)C)nc(SCCCCCC)n1 [Compound D1S6N13]', 'HEK293 cells', 'criterion not met'),
  ('CCCCCCCCCCCCCNc1nc(NCCCN2CCOCC2)nc(SCCCCCCCCCCC)n1 [Compound D8S11N13]', 'HEK293 cells', 'criterion met'),
  ('CCCCCCCCCCCCCCCSc1nc(NCCCN2CCN(C)CC2)nc(SCCCCCC)n1 [Compound D9S6S15]', 'HEK293 cells', 'criterion met'),
  ('CCCCCCCCCCCCNc1nc(NCCN2CCN(C)CC2)nc(SCCCCCCCCCCCC)n1 [Compound D5S12N12]', 'HEK293 cells', 'criterion met'),
  ('CCCCCCCCCCCCCCCCCCSc1nc(NCCCCCCCCC)nc(NCCN2CCCCC2)n1 [Compound D4S18N9]', 'HEK293 cells', 'criterion not met');

INPUT: Identify whether the reported Absolute mRNA transfection efficiency in HEK293 cells of the following compound is 3% or greater: CCCCCCCCCCCCCCCCCCSc1nc(NCCCCCCCCCCCCCCCC)nc(NCCN2CCCC2)n1 [Compound D3S18N16]
OUTPUT: criterion not met

INPUT: Decide: is the reported value of Absolute mRNA transfection efficiency in HEK293 cells for CCCCCCCCCCCCN(CCCCCCCCCCCC)c1nc(NCCCN2CCN(C)CC2)nc(SCCCCCCCCC)n1 [D9S9^2N12] equal to or greater than 3%?
OUTPUT: criterion not met

###

Recorded measurements of Absolute DNA transfection efficiency in HEK293 cells, one per entry
System: HEK293 cells
EXPERIMENT_NOTES: Preliminary screening as DNA vectors, GFP transfection of HEK293 cells
Assay type: cell-based
CONDITION_SET: amino lipid/DOPE liposome with 75 ng plasmid DNA (psin-EGFP-IRES-Puro); number of GFP-expressing cells divided by total nuclei (Hoechst)
Please give a number only; it is taken to be in %.

For orientation, consider the following solved cases.
INSERT INTO assay_data (compound, numeric_value) VALUES
  ('CCCCCCCCCCCSc1nc(NCCCCCCCC)nc(NCCN2CCCCC2)n1 [S11N8 D4]', 5.9),
  ('CCCCCCCCCCCCCCCNc1nc(NCCN(CC)CC)nc(SCCCCCCCCCCC)n1 [S11N15 D7]', 5.2),
  ('CCCCCCCCCCCSc1nc(NCCCN2CCN(C)CC2)nc(SCCCCCC)n1 [S6S11 D9]', 16.8),
  ('CCCCCCCCCCCNc1nc(NCCN2CCN(C)CC2)nc(SCCCCCCCC)n1 [S8N11 D5]', 52.7);

# ---- query compound ----
INPUT: What Absolute DNA transfection efficiency in HEK293 cells appears in the records for this compound with HEK293 cells? CCCCCCCCCCCCCCSc1nc(NCCCCCCCCC)nc(NCCN(C)C)n1 [S14N9 D1]
OUTPUT: 20.8

###

Tested on: Hela cells
EXPERIMENT_NOTES: Transfection of Hela cell line, mRNA vectors
Assay type: cell-based
CONDITION_SET: 50 ng EGFP mRNA per well
Rule: Absolute mRNA transfection efficiency in Hela cells of 5% or more gives rule met; anything lower gives rule not met.

Previously resolved entries follow.
INSERT INTO results (mol_smiles, class_assignment) VALUES
  ('CCCCCCCCCCCCNc1nc(NCC2CCN(C)CC2)nc(SCCCCCCCCC)n1', 'rule met'),
  ('CCCCCCCCCCCCCCSc1nc(NCCN2CCCCC2)nc(SCCCCCCCCC)n1', 'rule not met'),
  ('CCCCCCCCCCCCCCCCSc1nc(NCCN(C)C)nc(SCCCCCCCCC)n1', 'rule not met'),
  ('CCCCCCCCCCCCNc1nc(NCCN2CCCCC2)nc(SCCCCCCCC)n1', 'rule not met'),
  ('CCCCCCCCCCCSc1nc(NCCN2CCCC2)nc(SCCCCCCC)n1', 'rule not met'),
  ('CCCCCCCCCCCCSc1nc(NCCN(C)C)nc(SCCCCCCCC)n1', 'rule met'),
  ('CCCCCCCCCCCCCCCCSc1nc(NCCN2CCCCC2)nc(SCCCCCCCCC)n1', 'rule met'),
  ('CCCCCCCCCCCSc1nc(NCCCN(C)C)nc(SCCCCCCCC)n1', 'rule not met'),
  ('CCCCCCCCCCCNc1nc(NCCN(CC)CC)nc(SCCCCCCCCC)n1', 'rule met'),
  ('CCCCCCCCCCCSc1nc(NCCCCCCC)nc(NCCN2CCCCC2)n1', 'rule not met');

INPUT: Is Absolute mRNA transfection efficiency in Hela cells for CCCCCCCCCCCNc1nc(NCCCN2CCN(C)CC2)nc(SCCCCCCCCC)n1 at or above 5%?
OUTPUT: rule met

INPUT: Hi team, for CCCCCCCCCCCCSc1nc(NCCCN2CCOCC2)nc(SCCCCCCC)n1 , is the recorded Absolute mRNA transfection efficiency in Hela cells at or above 5%?
OUTPUT: rule met

INPUT: Item CCCCCCCCCCCSc1nc(NCCCCCCCCC)nc(NCCN(C)C)n1 with Absolute mRNA transfection efficiency in Hela cells of 5% or above?
OUTPUT: rule met

INPUT: Please indicate if the recorded Absolute mRNA transfection efficiency in Hela cells for CCCCCCCCCCCSc1nc(NCCN2CCN(C)CC2)nc(SCCCCCCC)n1 meets or exceeds 5%.
OUTPUT: rule met

INPUT: Does the molecule CCCCCCCCCNc1nc(NCCCN2CCOCC2)nc(SCCCCCCCCC)n1 have recorded Absolute mRNA transfection efficiency in Hela cells that is 5% or more?
OUTPUT: rule met

INPUT: Hi team, for CCCCCCCCCCCCCCCSc1nc(NCCN2CCCCC2)nc(SCCCCCCCCC)n1 , is the recorded Absolute mRNA transfection efficiency in Hela cells at or above 5%?
OUTPUT: rule met

INPUT: # check: Absolute mRNA transfection efficiency in Hela cells of CCCCCCCCCCCSc1nc(NCCCCCCCC)nc(NCCCN(C)C)n1 is greater than or equal to 5%
OUTPUT: rule met

###

System: HEK293 cells
EXPERIMENT_NOTES: Preliminary screening as mRNA vectors, EGFP mRNA transfection of HEK293 cells
Type: cell-based
CONDITION_SET: HEK293 cells, 96-well plates, EGFP mRNA 50 ng per well; percentage of GFP fluorescent cells relative to total number of cells (Hoechst)
METRIC: Absolute mRNA transfection efficiency in HEK293 cells

Use these answered entries as a reference point.
INSERT INTO assay_data (compound, target_entity, result) VALUES
  ('CCCCCCCCCCCCCCCNc1nc(NCCCCCCCCCCCCC)nc(NCCCN2CCOCC2)n1 [Compound N13N15D8]', 'HEK293 cells', '0.0%'),
  ('CCCCCCCCCCCCSc1nc(NCCN2CCCC2)nc(SCCCCCCCCCC)n1 [Compound S10S12D3]', 'HEK293 cells', '7.6%'),
  ('CCCCCCCCCCCCCCCCCCNc1nc(NCCCCCCC)nc(NCCN2CCN(C)CC2)n1 [Compound N7N18D5]', 'HEK293 cells', '0.1%');

INPUT: Value lookup for Absolute mRNA transfection efficiency in HEK293 cells; key = CCCCCCCCCCCNc1nc(NCCCCCCCC)nc(NCCN2CCOCC2)n1 [Compound N8N11D2]
OUTPUT: 0.0%
